Data origin: patent US9061010B2

- method-description: Alamar Blue viability assay
- experimental-setup: human
quantity-name: viability at 72 h, 5 µM

Input Clc1ccc(Cn2c(CN3CCCC3)nc3ccccc32)cc1 [drawing 374] . Output viability at 72 h, 5 µM: 90 to 100%
